TARGET: IKZF2 Helios (Homo sapiens, UniProt Q96SW2+Q9UKS7)
Sequence (Q9UKS7 whole entry): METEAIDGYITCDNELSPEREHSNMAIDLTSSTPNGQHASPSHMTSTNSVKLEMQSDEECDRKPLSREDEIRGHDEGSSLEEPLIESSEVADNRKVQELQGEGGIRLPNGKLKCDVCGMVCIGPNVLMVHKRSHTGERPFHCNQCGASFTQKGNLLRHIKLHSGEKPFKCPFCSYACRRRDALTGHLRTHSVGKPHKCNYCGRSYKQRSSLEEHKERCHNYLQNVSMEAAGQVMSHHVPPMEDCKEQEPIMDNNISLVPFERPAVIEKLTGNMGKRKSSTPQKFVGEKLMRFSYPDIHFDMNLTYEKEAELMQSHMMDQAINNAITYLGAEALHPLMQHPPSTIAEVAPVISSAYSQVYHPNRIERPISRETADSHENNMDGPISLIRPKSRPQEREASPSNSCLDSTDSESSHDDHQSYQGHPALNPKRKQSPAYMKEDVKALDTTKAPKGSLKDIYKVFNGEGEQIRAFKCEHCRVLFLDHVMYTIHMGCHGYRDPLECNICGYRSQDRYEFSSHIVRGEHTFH
Sequence (Q96SW2 whole entry): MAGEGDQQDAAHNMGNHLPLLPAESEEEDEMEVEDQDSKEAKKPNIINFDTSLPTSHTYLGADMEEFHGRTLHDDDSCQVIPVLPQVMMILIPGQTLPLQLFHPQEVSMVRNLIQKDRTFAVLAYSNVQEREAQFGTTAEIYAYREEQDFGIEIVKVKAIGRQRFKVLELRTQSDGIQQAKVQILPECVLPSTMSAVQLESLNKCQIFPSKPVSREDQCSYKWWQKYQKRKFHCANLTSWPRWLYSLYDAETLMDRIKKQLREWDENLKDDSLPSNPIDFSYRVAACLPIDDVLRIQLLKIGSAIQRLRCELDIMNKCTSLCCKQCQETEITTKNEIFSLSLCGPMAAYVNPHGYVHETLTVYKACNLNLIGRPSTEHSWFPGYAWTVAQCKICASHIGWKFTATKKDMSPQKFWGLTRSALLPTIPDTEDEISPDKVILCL
Sequence (Q16531 whole entry partner): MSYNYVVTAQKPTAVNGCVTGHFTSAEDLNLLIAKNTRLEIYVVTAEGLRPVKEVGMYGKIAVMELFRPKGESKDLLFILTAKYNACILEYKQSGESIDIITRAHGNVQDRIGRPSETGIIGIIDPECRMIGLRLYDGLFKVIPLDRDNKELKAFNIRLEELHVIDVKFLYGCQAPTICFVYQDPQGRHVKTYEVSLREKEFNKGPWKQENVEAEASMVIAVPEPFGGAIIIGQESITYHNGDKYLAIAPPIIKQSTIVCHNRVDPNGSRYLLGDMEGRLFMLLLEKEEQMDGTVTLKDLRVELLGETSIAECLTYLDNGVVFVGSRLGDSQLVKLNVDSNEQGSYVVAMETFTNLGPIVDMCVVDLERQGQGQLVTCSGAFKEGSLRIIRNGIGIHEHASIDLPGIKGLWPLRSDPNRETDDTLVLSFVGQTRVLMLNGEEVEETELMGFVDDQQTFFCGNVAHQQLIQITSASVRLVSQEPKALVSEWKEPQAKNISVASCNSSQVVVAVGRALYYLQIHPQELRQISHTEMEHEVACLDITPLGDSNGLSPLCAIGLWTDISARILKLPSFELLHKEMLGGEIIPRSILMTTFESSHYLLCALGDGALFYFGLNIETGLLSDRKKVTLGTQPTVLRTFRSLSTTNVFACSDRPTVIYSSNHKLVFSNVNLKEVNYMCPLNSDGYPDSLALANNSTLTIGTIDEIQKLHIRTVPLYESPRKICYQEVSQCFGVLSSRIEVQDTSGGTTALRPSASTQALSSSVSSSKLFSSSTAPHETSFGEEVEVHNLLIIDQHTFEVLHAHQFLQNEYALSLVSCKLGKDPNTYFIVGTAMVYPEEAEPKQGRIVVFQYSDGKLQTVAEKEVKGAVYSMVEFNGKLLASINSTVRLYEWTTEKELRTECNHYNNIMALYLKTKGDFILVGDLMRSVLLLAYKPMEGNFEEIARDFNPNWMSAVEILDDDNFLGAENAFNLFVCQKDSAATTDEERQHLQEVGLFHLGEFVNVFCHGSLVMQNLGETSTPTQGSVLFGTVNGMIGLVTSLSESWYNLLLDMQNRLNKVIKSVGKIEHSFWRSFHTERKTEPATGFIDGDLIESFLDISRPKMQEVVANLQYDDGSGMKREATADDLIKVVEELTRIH
ASSAY EXPLANATION: Human Regulatory T Cell Reprogramming Assay
Assay type: cell-based
Design: endogenous in cells; host or cells: primary human CD4+CD127lowCD25+ Treg cells from healthy leukopaks
CONDITION PARAMETERS: CD4+CD127lowCD25+ Treg cells, 12-13 days; vs DMSO alone
ENDPOINT LABEL: DC50 (µM)
// return numeric value only (unit: µM, not printed)

{"COMPOUND": "COC1CCN(Cc2ccc(-c3ccc(-c4cn(C5CCC(=O)NC5=O)c(=O)o4)c(F)c3)nc2N)CC1 (stereo not drawn)", "DC50, µM": 0.155}
{"COMPOUND": "CC1(C)Cc2cc(-c3ccc(-c4cn(C5CCC(=O)NC5=O)c(=O)o4)c(F)c3)nc(N)c2O1 (stereo not drawn)", "DC50, µM": 0.045}
{"COMPOUND": "CO[C@H]1C[C@H](Oc2c(C)cc(-c3ccc(-c4cn(C5CCC(=O)NC5=O)c(=O)o4)c(F)c3)nc2N)C1 (relative stereo)", "DC50, µM": 0.205}

Switching to the query record.
*Q* # DC50 lookup, item Cc1cc(-c2ccc(-c3cn(C4CCC(=O)NC4=O)c(=O)o3)c(F)c2)nc(N)c1NCC1CCOCC1 (stereo not drawn)
*A* 0.247
